tested on: Echinochloa crus-galli (ECHCG); experiment: Post-emergence herbicidal glasshouse test; type: in vivo; conditions: 250 g/ha, evaluated after 13 days
test readout: percentage damage caused to the plant (five-point scale), ECHCG

molecule	result
C=Cn1nc(C(F)F)cc1Cc1ncc(Cl)cn1 [Compound 1.037]	2 (21-40%)
FC(F)(F)CCn1nc(C(F)(F)F)cc1Cc1ncc(Cl)cn1 [Compound 1.010]	4 (61-80%)
N#CC1(Cn2nc(C(F)F)cc2Cc2ccc(Cl)cc2)CC1 [Compound 1.027]	1 (0-20%)
FC(F)c1cc(Cc2ncc(Cl)cn2)n(CCn2ccc(C(F)(F)F)n2)n1 [Compound 1.038]	1 (0-20%)
CCCCn1nc(C(F)F)cc1Cc1ncc(Cl)cn1 [Compound 1.011]	1 (0-20%)
FC(F)c1cc(Cc2ncc(Cl)cn2)n(CCCC(F)(F)F)n1 [Compound 1.002]	1 (0-20%)
Fc1cc(Cl)cnc1Cc1cc(C(F)(F)F)nn1CCC(F)(F)F [Compound 1.018]	4 (61-80%)
FC(F)c1cc(Cc2ncc(Cl)cn2)n(CCC2CC2)n1 [Compound 1.003]	1 (0-20%)
FC(F)c1cc(Cc2ncc(Cl)cn2)n(CCC2CCOC2)n1 (stereo not shown) [Compound 1.001]	1 (0-20%)
FC(F)CCn1nc(C(F)F)cc1Cc1ncc(Cl)cn1 [Compound 1.008]	1 (0-20%)

src = patent US20260365634A1
